Target: Serine/threonine-protein kinase MRCK beta (Homo sapiens, UniProt Q9Y5S2)
Sequence (Q9Y5S2 whole entry): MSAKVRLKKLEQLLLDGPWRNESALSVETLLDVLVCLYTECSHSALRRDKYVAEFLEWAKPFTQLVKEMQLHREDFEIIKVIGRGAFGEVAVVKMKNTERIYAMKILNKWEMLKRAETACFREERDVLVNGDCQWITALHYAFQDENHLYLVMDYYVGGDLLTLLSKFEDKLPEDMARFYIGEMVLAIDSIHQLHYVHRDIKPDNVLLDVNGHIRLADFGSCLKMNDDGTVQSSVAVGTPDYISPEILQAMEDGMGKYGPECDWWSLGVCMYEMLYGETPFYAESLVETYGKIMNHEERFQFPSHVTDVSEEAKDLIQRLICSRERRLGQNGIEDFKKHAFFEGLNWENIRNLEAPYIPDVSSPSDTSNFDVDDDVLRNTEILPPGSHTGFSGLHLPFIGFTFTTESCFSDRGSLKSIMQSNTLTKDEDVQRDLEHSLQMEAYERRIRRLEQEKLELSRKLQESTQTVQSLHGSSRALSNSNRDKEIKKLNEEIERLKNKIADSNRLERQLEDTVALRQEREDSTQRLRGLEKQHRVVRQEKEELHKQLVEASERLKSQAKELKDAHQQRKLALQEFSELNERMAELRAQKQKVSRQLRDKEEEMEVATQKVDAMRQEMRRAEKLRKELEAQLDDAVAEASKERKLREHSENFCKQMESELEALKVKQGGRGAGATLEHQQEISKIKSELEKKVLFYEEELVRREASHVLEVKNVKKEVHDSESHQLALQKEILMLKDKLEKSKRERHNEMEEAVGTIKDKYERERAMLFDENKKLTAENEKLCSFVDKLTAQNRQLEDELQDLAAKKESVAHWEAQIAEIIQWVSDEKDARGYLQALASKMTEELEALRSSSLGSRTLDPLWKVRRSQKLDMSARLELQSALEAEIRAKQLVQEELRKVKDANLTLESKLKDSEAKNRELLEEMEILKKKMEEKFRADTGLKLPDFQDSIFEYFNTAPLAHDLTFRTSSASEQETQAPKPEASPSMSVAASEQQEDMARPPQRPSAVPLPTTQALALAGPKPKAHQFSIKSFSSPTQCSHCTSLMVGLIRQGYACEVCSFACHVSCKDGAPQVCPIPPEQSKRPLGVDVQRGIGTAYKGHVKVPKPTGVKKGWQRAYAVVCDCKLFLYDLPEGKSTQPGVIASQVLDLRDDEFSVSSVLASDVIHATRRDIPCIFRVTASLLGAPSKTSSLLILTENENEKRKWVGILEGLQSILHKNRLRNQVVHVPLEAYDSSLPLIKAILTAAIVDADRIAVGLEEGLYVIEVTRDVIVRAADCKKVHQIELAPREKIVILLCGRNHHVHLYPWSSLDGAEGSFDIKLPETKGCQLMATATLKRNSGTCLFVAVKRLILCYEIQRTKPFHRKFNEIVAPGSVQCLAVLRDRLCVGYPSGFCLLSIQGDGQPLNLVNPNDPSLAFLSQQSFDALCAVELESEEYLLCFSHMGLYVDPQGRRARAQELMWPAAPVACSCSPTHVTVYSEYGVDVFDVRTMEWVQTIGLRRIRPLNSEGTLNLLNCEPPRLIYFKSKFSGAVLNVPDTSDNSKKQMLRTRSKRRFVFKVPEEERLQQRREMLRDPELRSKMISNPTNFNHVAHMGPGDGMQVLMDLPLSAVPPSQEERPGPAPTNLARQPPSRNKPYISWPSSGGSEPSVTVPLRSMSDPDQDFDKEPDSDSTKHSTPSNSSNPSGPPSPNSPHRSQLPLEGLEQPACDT
pIC50: −log10 of the molar value.
quantityKind: pIC50

Qu. // fetch pIC50 for COc1ncc(F)cc1CNc1ccc(Cc2c[nH]c3ncc(C)cc23)c(F)n1 [PLX-5622] ; system: Serine/threonine-protein kinase MRCK beta (Homo sapiens, UniProt Q9Y5S2)
Ans. < 6.00

---

Molecular target: UniProt P29376
pIC50: −log10 of the molar value.
quantityKind: pIC50

Qu. For the compound COc1ncc(F)cc1CNc1ccc(Cc2c[nH]c3ncc(C)cc23)c(F)n1 [PLX-5622] , give its reported pIC50.
Ans. < 6.00

---

Experiment: Octanol to water partition coefficient, logD of the compound
Format: physicochemical
Item-by-item account of logD

>>> print(df.to_string())
                                     smiles  quantitykind  result
0  FC(F)(F)c1ccc(CNc2ccc(Cc3c[nH]c4ncc(Cl)cc34)cn2)cn1          logD    3.35

// next entry
Qu. For the molecule `COc1ncc(F)cc1CNc1ccc(Cc2c[nH]c3ncc(C)cc23)c(F)n1` , give its reported logD.
Ans. 3.92

---

Molecular target: Tyrosine-protein kinase ZAP-70 (Homo sapiens, UniProt P43403)
Sequence (P43403 whole entry): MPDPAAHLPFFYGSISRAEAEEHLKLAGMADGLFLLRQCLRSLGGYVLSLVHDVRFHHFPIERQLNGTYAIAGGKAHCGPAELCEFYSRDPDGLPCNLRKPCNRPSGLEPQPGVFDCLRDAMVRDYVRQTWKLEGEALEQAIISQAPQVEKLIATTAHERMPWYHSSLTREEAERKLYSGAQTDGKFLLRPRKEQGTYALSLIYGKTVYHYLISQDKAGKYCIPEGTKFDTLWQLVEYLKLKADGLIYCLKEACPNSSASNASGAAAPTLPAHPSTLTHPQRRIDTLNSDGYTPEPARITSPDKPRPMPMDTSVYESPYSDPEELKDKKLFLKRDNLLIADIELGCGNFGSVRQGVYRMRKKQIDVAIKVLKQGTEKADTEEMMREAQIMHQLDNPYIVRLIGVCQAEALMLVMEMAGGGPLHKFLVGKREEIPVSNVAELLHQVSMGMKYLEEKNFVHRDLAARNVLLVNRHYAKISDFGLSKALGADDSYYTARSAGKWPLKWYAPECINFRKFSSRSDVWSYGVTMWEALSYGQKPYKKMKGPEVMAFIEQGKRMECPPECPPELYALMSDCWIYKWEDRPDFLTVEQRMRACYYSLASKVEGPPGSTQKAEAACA
quantityKind: IC50

Qu. For the compound COc1ncc(F)cc1CNc1ccc(Cc2c[nH]c3ncc(C)cc23)c(F)n1 [PLX-5622] , give its reported IC50.
Ans. > 1000 nM

---

Molecular target: Hepatocyte growth factor receptor (Homo sapiens)
Sequence (P08581 whole entry): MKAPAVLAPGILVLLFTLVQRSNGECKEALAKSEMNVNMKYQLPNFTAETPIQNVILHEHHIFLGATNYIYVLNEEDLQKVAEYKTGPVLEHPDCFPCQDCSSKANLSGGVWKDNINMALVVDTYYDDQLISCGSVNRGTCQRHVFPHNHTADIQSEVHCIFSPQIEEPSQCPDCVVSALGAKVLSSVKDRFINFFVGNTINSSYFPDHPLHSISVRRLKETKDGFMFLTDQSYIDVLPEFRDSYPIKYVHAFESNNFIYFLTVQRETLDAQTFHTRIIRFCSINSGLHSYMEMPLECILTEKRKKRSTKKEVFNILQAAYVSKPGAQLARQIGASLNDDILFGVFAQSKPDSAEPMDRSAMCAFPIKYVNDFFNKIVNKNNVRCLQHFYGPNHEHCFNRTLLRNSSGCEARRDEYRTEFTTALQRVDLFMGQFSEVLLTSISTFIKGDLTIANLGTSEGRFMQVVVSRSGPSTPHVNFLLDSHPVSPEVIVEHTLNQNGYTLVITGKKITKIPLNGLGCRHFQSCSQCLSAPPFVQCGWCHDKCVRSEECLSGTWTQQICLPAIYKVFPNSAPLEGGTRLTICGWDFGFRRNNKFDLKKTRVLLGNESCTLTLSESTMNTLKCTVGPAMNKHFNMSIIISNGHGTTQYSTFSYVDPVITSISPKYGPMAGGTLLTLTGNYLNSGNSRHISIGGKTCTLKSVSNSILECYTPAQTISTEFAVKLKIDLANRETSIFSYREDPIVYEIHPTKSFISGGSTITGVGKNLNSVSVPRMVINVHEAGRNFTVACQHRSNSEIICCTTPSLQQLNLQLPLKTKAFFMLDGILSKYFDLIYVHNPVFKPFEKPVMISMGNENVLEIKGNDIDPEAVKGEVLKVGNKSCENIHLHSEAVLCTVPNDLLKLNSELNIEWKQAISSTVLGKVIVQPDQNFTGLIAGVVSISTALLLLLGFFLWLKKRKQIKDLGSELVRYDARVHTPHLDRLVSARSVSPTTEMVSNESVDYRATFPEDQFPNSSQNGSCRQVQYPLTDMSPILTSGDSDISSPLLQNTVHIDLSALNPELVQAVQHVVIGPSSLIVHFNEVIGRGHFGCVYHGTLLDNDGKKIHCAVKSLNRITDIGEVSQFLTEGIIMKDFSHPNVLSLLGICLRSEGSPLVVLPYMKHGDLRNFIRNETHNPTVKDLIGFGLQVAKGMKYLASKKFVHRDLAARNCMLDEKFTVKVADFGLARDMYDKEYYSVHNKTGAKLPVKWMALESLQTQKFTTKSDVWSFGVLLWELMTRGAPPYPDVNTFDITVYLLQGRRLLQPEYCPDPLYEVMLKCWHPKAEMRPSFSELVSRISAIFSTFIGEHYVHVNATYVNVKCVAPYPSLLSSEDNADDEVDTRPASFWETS
pIC50: −log10 of the molar value.
quantityKind: pIC50

Qu. // fetch pIC50 for COc1ncc(F)cc1CNc1ccc(Cc2c[nH]c3ncc(C)cc23)c(F)n1 [PLX-5622] ; system: Hepatocyte growth factor receptor (Homo sapiens)
Ans. < 6.00

---

Target: cGMP-dependent protein kinase 1 (Homo sapiens)
Sequence (Q13976 whole entry): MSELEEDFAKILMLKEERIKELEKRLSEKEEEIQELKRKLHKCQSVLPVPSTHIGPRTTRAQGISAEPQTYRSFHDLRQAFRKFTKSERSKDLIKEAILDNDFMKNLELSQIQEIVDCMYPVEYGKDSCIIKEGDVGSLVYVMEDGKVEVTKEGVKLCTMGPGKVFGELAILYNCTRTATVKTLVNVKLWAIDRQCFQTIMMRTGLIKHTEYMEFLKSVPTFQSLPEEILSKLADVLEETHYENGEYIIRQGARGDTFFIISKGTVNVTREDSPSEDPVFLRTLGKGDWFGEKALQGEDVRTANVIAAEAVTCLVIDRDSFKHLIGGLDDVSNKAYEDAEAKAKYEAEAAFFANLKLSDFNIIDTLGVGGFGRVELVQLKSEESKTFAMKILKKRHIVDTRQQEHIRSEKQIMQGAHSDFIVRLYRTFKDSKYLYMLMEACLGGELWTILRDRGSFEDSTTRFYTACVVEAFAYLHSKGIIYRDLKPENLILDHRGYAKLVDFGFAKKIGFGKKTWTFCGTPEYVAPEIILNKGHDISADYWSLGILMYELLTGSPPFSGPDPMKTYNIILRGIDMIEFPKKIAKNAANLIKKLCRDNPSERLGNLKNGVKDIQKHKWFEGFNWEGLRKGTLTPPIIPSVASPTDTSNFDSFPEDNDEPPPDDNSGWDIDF
pIC50: −log10 of the molar value.
quantityKind: pIC50

Qu. For the compound COc1ncc(F)cc1CNc1ccc(Cc2c[nH]c3ncc(C)cc23)c(F)n1 [PLX-5622] , give its reported pIC50.
Ans. < 6.00

---

Target: Tyrosine-protein kinase HCK (Homo sapiens, UniProt P08631)
quantityKind: IC50

Qu. // fetch IC50 for `COc1ncc(F)cc1CNc1ccc(Cc2c[nH]c3ncc(C)cc23)c(F)n1` ; system: Tyrosine-protein kinase HCK (Homo sapiens, UniProt P08631)
Ans. > 1000 nM

---

Biological target: Fibroblast growth factor receptor 3 (Homo sapiens, UniProt P22607)
quantityKind: IC50

Qu. For the molecule `COc1ncc(F)cc1CNc1ccc(Cc2c[nH]c3ncc(C)cc23)c(F)n1` , give its reported IC50.
Ans. > 1000 nM

---

Biological target: Rhodopsin kinase GRK7 (Homo sapiens, UniProt Q8WTQ7)
Sequence (Q8WTQ7 whole entry): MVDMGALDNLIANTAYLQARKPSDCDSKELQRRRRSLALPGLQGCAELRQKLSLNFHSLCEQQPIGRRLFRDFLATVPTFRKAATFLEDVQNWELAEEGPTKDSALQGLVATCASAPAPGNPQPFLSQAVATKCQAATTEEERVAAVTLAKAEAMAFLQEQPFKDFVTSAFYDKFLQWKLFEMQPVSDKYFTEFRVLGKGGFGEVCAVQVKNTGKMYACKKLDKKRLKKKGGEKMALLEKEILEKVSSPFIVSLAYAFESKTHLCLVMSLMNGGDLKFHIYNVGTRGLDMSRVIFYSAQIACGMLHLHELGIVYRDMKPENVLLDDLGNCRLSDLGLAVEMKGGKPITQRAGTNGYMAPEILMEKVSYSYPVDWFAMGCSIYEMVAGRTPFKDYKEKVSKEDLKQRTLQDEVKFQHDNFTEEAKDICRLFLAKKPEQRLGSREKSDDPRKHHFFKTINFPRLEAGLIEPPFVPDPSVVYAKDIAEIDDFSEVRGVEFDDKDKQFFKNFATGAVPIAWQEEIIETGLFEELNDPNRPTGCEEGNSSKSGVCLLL
quantityKind: IC50

Qu. For the compound `COc1ncc(F)cc1CNc1ccc(Cc2c[nH]c3ncc(C)cc23)c(F)n1` , give its reported IC50.
Ans. > 1000 nM

---

Target: Serine/threonine-protein kinase 4 (Homo sapiens, UniProt Q13043)
pIC50: −log10 of the molar value.
quantityKind: pIC50

Qu. For the molecule COc1ncc(F)cc1CNc1ccc(Cc2c[nH]c3ncc(C)cc23)c(F)n1 [PLX-5622] , give its reported pIC50.
Ans. < 6.00

---

Molecular target: Tyrosine-protein kinase Fes/Fps (Homo sapiens)
quantityKind: IC50

Qu. // fetch IC50 for `COc1ncc(F)cc1CNc1ccc(Cc2c[nH]c3ncc(C)cc23)c(F)n1` ; system: Tyrosine-protein kinase Fes/Fps (Homo sapiens)
Ans. > 1 µM

---

Molecular target: Calcium/calmodulin-dependent protein kinase type 1D (Homo sapiens, UniProt Q8IU85)
Experiment: Inhibition of CAMK1D (unknown origin)
quantityKind: IC50

Qu. For the molecule COc1ncc(F)cc1CNc1ccc(Cc2c[nH]c3ncc(C)cc23)c(F)n1 [PLX-5622] , give its reported IC50.
Ans. > 1000 nM

---

Molecular target: Ribosomal protein S6 kinase beta-1 (Homo sapiens)
pIC50: −log10 of the molar value.
quantityKind: pIC50

Qu. // fetch pIC50 for `COc1ncc(F)cc1CNc1ccc(Cc2c[nH]c3ncc(C)cc23)c(F)n1` ; system: Ribosomal protein S6 kinase beta-1 (Homo sapiens)
Ans. < 6.00

---

Molecular target: Mitogen-activated protein kinase kinase kinase kinase 5 (Homo sapiens, UniProt Q9Y4K4)
Sequence (Q9Y4K4 whole entry): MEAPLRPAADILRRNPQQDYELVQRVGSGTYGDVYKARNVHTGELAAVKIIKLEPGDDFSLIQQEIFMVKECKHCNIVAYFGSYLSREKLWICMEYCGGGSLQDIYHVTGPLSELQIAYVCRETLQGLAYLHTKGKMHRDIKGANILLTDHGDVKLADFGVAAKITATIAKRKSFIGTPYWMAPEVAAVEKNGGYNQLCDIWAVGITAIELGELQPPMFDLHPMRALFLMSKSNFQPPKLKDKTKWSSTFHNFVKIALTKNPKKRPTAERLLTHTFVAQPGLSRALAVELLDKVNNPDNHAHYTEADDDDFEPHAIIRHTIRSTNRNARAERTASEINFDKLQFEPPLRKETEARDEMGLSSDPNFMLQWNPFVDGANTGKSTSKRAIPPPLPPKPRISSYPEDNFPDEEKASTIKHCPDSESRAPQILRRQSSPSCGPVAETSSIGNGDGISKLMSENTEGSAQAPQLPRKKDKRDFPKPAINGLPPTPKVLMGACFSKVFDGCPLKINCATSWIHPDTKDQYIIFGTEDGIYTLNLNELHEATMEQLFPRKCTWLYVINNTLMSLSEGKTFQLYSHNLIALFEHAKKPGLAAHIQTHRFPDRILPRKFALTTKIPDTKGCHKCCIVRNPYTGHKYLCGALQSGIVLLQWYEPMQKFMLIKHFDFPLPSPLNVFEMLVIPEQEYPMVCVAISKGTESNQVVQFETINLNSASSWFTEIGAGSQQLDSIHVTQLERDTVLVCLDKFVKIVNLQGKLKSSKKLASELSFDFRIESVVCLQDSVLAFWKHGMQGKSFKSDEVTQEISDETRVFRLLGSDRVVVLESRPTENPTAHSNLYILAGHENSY
Test: Inhibition of MAP4K5 (unknown origin)
pIC50: −log10 of the molar value.
quantityKind: pIC50

Qu. For the compound `COc1ncc(F)cc1CNc1ccc(Cc2c[nH]c3ncc(C)cc23)c(F)n1` , give its reported pIC50.
Ans. < 6.00

---

Target: Homeodomain-interacting protein kinase 2 (Homo sapiens)
Sequence (Q9H2X6 whole entry): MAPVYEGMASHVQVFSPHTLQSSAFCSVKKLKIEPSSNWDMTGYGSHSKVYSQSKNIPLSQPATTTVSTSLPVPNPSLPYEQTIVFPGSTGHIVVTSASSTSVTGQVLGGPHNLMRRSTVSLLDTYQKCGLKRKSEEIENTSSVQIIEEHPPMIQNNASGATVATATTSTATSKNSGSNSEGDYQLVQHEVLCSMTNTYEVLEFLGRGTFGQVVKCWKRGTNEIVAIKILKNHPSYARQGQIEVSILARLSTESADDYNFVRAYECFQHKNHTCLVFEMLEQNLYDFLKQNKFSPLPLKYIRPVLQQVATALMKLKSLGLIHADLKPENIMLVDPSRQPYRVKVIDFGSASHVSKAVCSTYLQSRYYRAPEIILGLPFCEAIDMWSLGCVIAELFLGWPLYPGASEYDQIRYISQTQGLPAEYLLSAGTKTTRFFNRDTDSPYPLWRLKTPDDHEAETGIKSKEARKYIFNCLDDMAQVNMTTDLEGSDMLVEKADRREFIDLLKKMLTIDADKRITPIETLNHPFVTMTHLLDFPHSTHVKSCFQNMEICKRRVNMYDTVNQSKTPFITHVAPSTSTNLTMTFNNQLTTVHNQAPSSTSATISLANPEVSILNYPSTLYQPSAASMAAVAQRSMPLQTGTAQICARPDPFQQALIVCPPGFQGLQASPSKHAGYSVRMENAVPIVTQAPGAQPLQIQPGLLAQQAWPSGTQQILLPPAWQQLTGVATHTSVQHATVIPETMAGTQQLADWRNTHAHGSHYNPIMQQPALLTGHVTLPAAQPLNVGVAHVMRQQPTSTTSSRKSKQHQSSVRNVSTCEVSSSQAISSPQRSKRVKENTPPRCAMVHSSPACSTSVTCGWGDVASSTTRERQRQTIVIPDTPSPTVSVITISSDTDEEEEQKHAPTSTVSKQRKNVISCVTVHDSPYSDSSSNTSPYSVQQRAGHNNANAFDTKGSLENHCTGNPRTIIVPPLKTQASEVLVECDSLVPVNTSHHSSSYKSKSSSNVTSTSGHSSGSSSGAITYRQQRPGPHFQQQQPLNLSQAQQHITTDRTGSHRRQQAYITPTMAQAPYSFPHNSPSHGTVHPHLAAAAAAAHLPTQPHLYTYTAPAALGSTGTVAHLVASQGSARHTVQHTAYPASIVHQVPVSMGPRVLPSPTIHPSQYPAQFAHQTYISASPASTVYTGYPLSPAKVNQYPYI
quantityKind: IC50

Qu. // fetch IC50 for `COc1ncc(F)cc1CNc1ccc(Cc2c[nH]c3ncc(C)cc23)c(F)n1` ; system: Homeodomain-interacting protein kinase 2 (Homo sapiens)
Ans. > 1000 nM

---

Target: Ephrin type-B receptor 1 (Homo sapiens, UniProt P54762)
Sequence (P54762 whole entry): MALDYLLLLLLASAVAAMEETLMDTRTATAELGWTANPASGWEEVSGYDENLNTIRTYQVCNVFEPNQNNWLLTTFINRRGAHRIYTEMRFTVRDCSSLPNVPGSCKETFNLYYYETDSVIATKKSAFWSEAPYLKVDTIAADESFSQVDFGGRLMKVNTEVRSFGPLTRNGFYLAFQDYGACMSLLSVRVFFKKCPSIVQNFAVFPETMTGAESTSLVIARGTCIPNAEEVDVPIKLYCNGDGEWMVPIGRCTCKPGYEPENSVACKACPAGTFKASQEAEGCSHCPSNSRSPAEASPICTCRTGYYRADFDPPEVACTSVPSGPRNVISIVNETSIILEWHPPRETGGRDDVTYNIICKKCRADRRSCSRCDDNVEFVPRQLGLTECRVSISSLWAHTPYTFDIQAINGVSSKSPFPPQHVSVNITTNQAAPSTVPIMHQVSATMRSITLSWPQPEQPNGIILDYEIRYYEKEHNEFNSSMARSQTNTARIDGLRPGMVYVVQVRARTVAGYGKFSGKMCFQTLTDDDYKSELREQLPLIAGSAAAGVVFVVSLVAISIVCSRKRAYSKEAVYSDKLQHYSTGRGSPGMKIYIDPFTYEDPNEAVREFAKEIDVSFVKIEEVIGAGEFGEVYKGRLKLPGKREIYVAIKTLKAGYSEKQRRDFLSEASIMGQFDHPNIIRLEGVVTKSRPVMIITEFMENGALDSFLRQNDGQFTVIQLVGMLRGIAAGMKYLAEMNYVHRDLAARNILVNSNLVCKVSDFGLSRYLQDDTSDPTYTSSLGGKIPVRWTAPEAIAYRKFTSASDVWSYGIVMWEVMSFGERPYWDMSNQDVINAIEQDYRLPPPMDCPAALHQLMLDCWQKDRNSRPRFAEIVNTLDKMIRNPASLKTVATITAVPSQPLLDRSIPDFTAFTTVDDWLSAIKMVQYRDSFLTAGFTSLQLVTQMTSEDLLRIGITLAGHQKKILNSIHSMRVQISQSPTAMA
pIC50: −log10 of the molar value.
quantityKind: pIC50

Qu. For the compound `COc1ncc(F)cc1CNc1ccc(Cc2c[nH]c3ncc(C)cc23)c(F)n1` , give its reported pIC50.
Ans. < 6.00
